- system name: GSK-3β (AA 1–420) (Homo sapiens, UniProt P49841)
- Sequence (P49841 whole entry, species assumed, the tested form may be a part): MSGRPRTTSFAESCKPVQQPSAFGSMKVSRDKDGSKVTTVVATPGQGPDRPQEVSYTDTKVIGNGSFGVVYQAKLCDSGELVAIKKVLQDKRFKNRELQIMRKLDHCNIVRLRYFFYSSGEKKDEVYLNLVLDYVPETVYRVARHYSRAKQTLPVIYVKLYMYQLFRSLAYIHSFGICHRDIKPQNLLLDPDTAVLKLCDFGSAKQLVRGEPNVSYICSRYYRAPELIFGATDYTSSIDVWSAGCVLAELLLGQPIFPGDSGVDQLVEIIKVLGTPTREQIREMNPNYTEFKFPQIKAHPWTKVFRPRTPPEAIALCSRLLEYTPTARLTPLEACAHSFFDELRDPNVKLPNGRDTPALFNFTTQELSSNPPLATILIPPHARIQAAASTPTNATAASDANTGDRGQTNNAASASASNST
pKi: −log10 of the molar value.
outcome measure: pKi

Name the recorded pKi for Cc1cnc(NC(CO)c2ccccc2)nc1-c1c[nH]c(C(=O)NC(CO)c2ccccc2)c1 (stereo not shown) . < 6.00

# repeat for O=C(NC(CO)c1ccccc1)c1cc(-c2nc(Nc3ccccc3)ncc2C2CC2)c[nH]1 (stereo not shown) < 6.00

# repeat for Cc1cccc(C(CO)NC(=O)c2cc(-c3nc(Nc4ccccc4C)ncc3C)c[nH]2)c1 (stereo not shown) > 7.00

# repeat for Cc1cnc(NOCCO)nc1-c1c[nH]c(C(=O)NC(CO)c2ccccc2)c1 (stereo not shown) > 7.00

###

- system name: ERK2 (Homo sapiens)
- Sequence (P28482 whole entry): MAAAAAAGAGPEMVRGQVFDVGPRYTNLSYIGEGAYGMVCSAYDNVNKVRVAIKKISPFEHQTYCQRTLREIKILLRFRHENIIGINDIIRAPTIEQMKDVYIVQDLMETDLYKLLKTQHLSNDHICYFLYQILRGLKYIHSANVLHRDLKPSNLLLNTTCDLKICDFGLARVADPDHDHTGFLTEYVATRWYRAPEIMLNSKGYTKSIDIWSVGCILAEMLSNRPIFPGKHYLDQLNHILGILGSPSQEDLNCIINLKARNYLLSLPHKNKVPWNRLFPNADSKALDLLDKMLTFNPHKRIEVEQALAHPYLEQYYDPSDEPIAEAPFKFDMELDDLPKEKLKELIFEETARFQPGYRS
- assay comment: ERK2 inhibition assay (spectrophotometric coupled-enzyme assay)
- Type: biochemical
- assay setup: read-out: ERK2 Inhibitory Activity (Ki class D-F)
- Protocol: The IC50 was evaluated from the rate data as a function of inhibitor concentration. […] The compound numbers correspond to the compound numbers in Table 1.
pKi: −log10 of the molar value.
outcome measure: pKi

# compound, observed result
rows = [
    ("Cc1cnc(N)nc1-c1c[nH]c(C(=O)NCCc2cccnc2)c1", "< 6.00"),
    ("Cc1cnc(Nc2ccc(OCc3ccccc3)cc2)nc1-c1c[nH]c(C(=O)NC(CO)c2ccccc2)c1 (stereo not shown)", "> 7.00"),
]

Name the recorded pKi for Cc1cnc(Nc2ccccc2)nc1-c1c[nH]c(C(=O)NCCCc2ccccc2)c1 . > 7.00

# repeat for CCNc1ncc(C)c(-c2c[nH]c(C(=O)NC(CO)c3cccnc3)c2)n1 (stereo not shown) 6.00 to 7.00

###

Notes on pKi obtained with GSK-3β (AA 1–420) (Homo sapiens, UniProt P49841).
pKi: −log10 of the molar value.

# compound, pKi
rows = [
    ("Cc1cnc(NCC2CC2)nc1-c1c[nH]c(C(=O)NC(CO)c2ccccc2)c1 (stereo not shown) [III-a-159]", "> 7.00"),
    ("Cc1cnc(NCc2ccccc2)nc1-c1c[nH]c(C(=O)NC(CO)c2ccccc2)c1 (stereo not shown) [III-a-150]", "6.00 to 7.00"),
    ("Cc1cnc(Nc2cccc(F)c2)nc1-c1c[nH]c(C(=O)NC(CO)c2cccc(C(F)(F)F)c2)c1 (stereo not shown) [III-a-148]", "> 7.00"),
    ("CCC(CO)Nc1ncc(C)c(-c2c[nH]c(C(=O)NC(CO)c3cccc(Cl)c3)c2)n1 (stereo not shown) [III-a-232]", "6.00 to 7.00"),
    ("Cc1cnc(NCCO)nc1-c1c[nH]c(C(=O)NC(CO)c2ccccc2)c1 (stereo not shown) [III-a-175]", "6.00 to 7.00"),
]

Name the recorded pKi for Cc1cnc(NC2CC2)nc1-c1c[nH]c(C(=O)N[C@H](CO)c2ccccc2)c1 [III-a-162] . > 7.00

###

- system name: ERK1 (Homo sapiens)
- Sequence (P27361 whole entry, species assumed): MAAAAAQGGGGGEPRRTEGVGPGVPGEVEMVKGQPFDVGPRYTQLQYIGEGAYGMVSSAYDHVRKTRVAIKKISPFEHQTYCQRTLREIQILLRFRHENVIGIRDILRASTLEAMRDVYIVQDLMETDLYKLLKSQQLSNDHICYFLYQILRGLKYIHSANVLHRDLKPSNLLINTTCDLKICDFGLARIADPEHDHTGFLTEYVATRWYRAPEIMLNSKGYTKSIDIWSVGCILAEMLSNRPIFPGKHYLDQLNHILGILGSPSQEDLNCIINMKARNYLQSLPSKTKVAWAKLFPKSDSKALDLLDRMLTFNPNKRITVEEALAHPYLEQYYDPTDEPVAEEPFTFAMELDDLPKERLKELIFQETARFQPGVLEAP
Entries annotated with measured Ki

# compound, Ki
measured = [
    ("Cc1cnc(NC2CC2)nc1-c1c[nH]c(C(=O)NC(CO)c2cccc(C(F)(F)F)c2)c1 (centres unmarked)", "< 100 nM"),
]

Name the recorded Ki for Cc1cnc(NC2CC2)nc1-c1c[nH]c(C(=O)NC(CO)c2cccc(Cl)c2)c1 (centres unmarked) . < 100 nM
